System: SNB-19 CNS
Assay: NCI-60 one-dose screen, 48 h (100 = growth as untreated, 0 = no growth, -100 = all killed)
Details: 10 µM
Compounds without any hit were thinned out: in the full panel of roughly 83,000, 20% have a hit.
Measured growth accompanies every entry in the list below.

{"columns": ["compound", "growth, %"],
 "data": [
  ["CCOC(=O)/C(=C/c1ccc(OC)cc1)N(CC)CC", 103],
  ["O=c1cc(-c2ccccc2)[nH]c2c1CCCC2", 39.4],
  ["CC(=O)OCC1=CC2OC(=O)C3=COC(OC4OC(CO)C(O)C(O)C4O)C1C32 (centres undefined)", 111],
  ["CC(C)(C)c1cc(O)c(C(C)(C)C)cc1O", 49.2]
]}

---

We begin with a simple list: items and their reported growth.
Tested on: SW-620 colon
Assay: NCI-60 one-dose screen, 48 h (100 = growth as untreated, 0 = no growth, -100 = all killed)
Details: 10 µM
Description: Growth inhibition of the SW-620 human tumor cell line is measured as a screen for anti-cancer activity. Cells are grown in 96 well plates and exposed to the test compound for 48 hours. Compounds are tested at a single concentration, which is 10^-5 M for most compounds. The reported endpoint is percent growth (GI% or GIPRCNT), where numbers from 0 - 100% represent growth inhibition, and numbers from -100% - 0 represent cell death. For example, a value of 40 represents 60% growth inhibition. […]
This is part of a sample that, as a whole, favours compounds with a hit. Of some 83,000 tested, about 20% had one in any assay.

{"columns": ["compound", "growth, %"],
 "data": [
  ["CC(=O)OC1CC2C(C)(C)OC3CC(=O)OCC32C2CCC3(C)C(=CCC3c3ccoc3)C12C (configuration not stated)", 112],
  ["C#CC(C)(O)c1ccc(Cl)cc1 (configuration not stated)", 109],
  ["C[C@]12CC[C@@H]3c4ccc(OCC(=O)O)cc4CC[C@H]3[C@@H]1CCC2=O", 102],
  ["N#Cc1c(N)sc(=S)c2c1CCCC2", 112],
  ["O=[N+]([O-])c1ccc(O)c(S(=O)(=O)O)c1", 104],
  ["O=C(NC1CCCCC1)OCc1c(COC(=O)NC2CCCCC2)c(-c2ccc(Cl)c(Cl)c2)n2c1CCC2", 32.6],
  ["CC(C)=NNc1ccc([N+](=O)[O-])cc1[N+](=O)[O-]", 85.7]
]}

---

Tested on: SR leukemia
Test: NCI-60 one-dose screen, 48 h (100 = growth as untreated, 0 = no growth, -100 = all killed)
Settings: 10 µM
The panel holds about 83,000 compounds, 20% with a hit somewhere; the sample as a whole holds those more often.

{"columns": ["compound", "experimental_system", "growth, %"],
 "data": [
  ["CCOC(=O)C1OC1c1ccccc1 (stereo not given)", "SR leukemia", 98.7],
  ["CN(C)c1ccc2nc3ccc(=N)cc-3sc2c1", "SR leukemia", 12],
  ["CCCCCCCCCCCCCCCCC1CC(=O)OC1=O (stereo not given)", "SR leukemia", 99.3],
  ["CC1OC(Oc2c(-c3ccc(O)c(O)c3)oc3cc(O)cc(O)c3c2=O)C(O)C(O)C1O (stereo not given)", "SR leukemia", 106],
  ["CCN(CC)CCCC(C)Nc1ccnc(/C=C/c2ccc(Cl)cc2)c1 (stereo not given)", "SR leukemia", -19]
]}
